Values compiled from patent EP0114002B1.

Property: IC50; scope: individual compounds
# System: L1210 cells
# assay_notes: L1210 murine leukemia cell growth inhibition in vitro
# Assay type: cell-based
# reported_conditions: Mus musculus, 72 h, Table 1, three days incubation, 50% inhibition of growth, read-out: L1210 in vitro ID50
# Method: Another test protocol uses L1210 cells, a murine leukemia cell line, grown in RPMI 1640 supplemented with 5% fetal bovine serum and gentamicin (50 pg/ml). […] After incubation at 37°C forthree days in 5% C02, the contents of each well are removed and the cells counted in a ZBI Coulter counter. Percent growth are calculated relative to the controls and the levels of drug activity are expressed as ID50 in moles per liter.

Below, each entry is followed by its recorded IC50 result.
CCN(CC)CCn1nc2c3c(c(N=CN(C)C)ccc31)Sc1ccccc1-2	100 nM
CN(C)CCn1nc2c3c(c([N+](=O)[O-])ccc31)Sc1ccccc1-2	79 nM

Req: Please look up its IC50: "CCN(CC)CCn1nc2c3c(c(N)ccc31)Sc1ccccc1-2"
Resp: 130 nM

Req: Please look up its IC50: CCNCCn1nc2c3c(c(N)ccc31)Sc1ccccc1-2 [CH2CH2NHC2H5 / NO2 / C17H18N4S·2HCl]
Resp: 71 nM

Req: Please look up its IC50: "CCN(CC)CCNc1ccc2c3c(nn2CCN(CC)CC)-c2ccccc2Sc13"
Resp: 140 nM
